Recorded values, source ChEMBL document CHEMBL1201862.

Reported GI50 values for a set of compounds
Tested on: SK-MEL-5
Assay: NCI tumour cell line growth inhibition, 48 h
The source made the active and inactive calls. Cut-off read from the data, not from the text of the source: active = GI50 up to about 1.1 µM and inactive = higher.
result type: GI50

• Nc1nc(N)c2nc(CNc3ccc(C(=O)O)cc3)[nH]c2n1 = > 100 µM (inactive)
• CC1COC(C)(C)P(=O)(c2ccccc2)C1 (stereo not drawn) = > 100 µM (inactive)
• CC(C)(C)c1ccc(O)c(C[N+](C)(C)C)c1 = 49.4 µM (inactive)

====

Reported GI50 values for a set of molecules
Test system: COLO 205
Assay: NCI tumour cell line growth inhibition, 48 h
Activity calls are given as the source filed them. Cut-off read from the data, not from the text of the source: active = GI50 up to about 1.1 µM and inactive = higher.
result type: GI50

- CC(=O)OCc1c2ccccc2c(C)c2c1cc(F)c1ccccc12: 16.2 µM (inactive)
- Nc1nc(N)c2nc(CNc3ccc(C(=O)O)cc3)[nH]c2n1: > 100 µM (inactive)
- NC(=S)N/N=C1\NC(=O)/C(=C/c2ccc3c(c2)OCO3)S1: 26.3 µM (inactive)
- COc1cc(/C=C2\[C@@H]3NC(Cc4c(OC)c(C)c(OC)c(OC)c43)C(=O)N2Cc2ccccc2)c(OC)c(C)c1OC: 15 µM (inactive)
- O=c1ccc2ccccc2o1 [COUMARIN]: > 100 µM (inactive)
- COC(=O)C(=O)C(CC(=O)Nc1cc(Cl)ccc1Cl)C(=O)OC (stereo not given): > 100 µM (inactive)
- COc1ccc(NC(=O)CSc2nnc(Cc3ccccc3)o2)cc1: 94.8 µM (inactive)
- CSc1ccc2c(c1)c(CCN)c(C)n2Cc1ccccc1Cl: 1.67 µM (inactive)
- Cc1ccc(C(=O)/C=C2\Nc3c(c(=O)oc4ccccc34)N=C2NC23CC4CC(CC(C4)C2)C3)cc1: > 100 µM (inactive)
- COc1c(O)cc2ccnc3c2c1N(C)C=C3: 94.6 µM (inactive)
- CC(=O)N1CCN(c2ccc(OCC3COC(Cn4ccnc4)(c4ccc(Cl)cc4Cl)O3)cc2)CC1 (stereo not given) [KETOCONAZOLE]: 20.1 µM (inactive)
- COC(=O)CCCC(=O)NC1=C(NCc2ccccc2)C(=O)c2ccccc2C1=O: 23.8 µM (inactive)
- Cc1ccccc1NC(=S)N/N=C1\C(=O)Nc2ccccc21: > 100 µM (inactive)
- Cc1ccc2nc(N/N=C/c3ccc(C)s3)cc(C)c2c1: 3.79 µM (inactive)
- COc1cc(/C=N\O)nc(-c2ccccn2)c1: 0.188 µM (active)
- Cc1ccc(Oc2ccc(C)cc2[N+](=O)[O-])cc1: > 100 µM (inactive)
- CCc1cccc(=O)c([O-])c1.CCc1cccc(=O)c([O-])c1.[Bi+3].[Cl-]: 2.29 µM (inactive)
- CCN(CC)CCCNc1nccc2c(C)c3[nH]c4ccncc4c(=O)c3cc12: 2.55 µM (inactive)
- Cc1cnc2nc(-c3ccc(F)cc3)cc(O)c2c1: 7.64 µM (inactive)
- O=C1OC(Cc2ccccc2)(N2CCCC2=O)C1c1ccccc1 (stereo not given): > 100 µM (inactive)
